Measured growth AUC by item
- System: Clostridium difficile
- TEST DESCRIPTION: growth AUC relative to DMSO control (median of replicates) (fraction); higher = more growth (less inhibition), active = hit call of the paper
- TEST SETTINGS: 20 µM; 24 h

[
  {
    "MOLECULE": "CCc1cccc(CC)c1N(COC)C(=O)CCl",
    "growth AUC": "0.974 (inactive)"
  },
  {
    "MOLECULE": "O=C(NC(=O)c1c(F)cccc1F)Nc1cc(Cl)c(Oc2ncc(C(F)(F)F)cc2Cl)c(Cl)c1",
    "growth AUC": "1 (inactive)"
  },
  {
    "MOLECULE": "Clc1ccc(C2(Cn3cncn3)CC(Br)CO2)c(Cl)c1 (stereo unspecified)",
    "growth AUC": "0.978 (inactive)"
  },
  {
    "MOLECULE": "O=C(NC(=O)c1c(F)cccc1F)Nc1ccc(OC(F)(F)C(F)OC(F)(F)F)c(Cl)c1 (stereo unspecified)",
    "growth AUC": "0.985 (inactive)"
  },
  {
    "MOLECULE": "COc1cc(OC)nc(NC(=O)NS(=O)(=O)c2ncccc2C(=O)N(C)C)n1",
    "growth AUC": "1 (inactive)"
  },
  {
    "MOLECULE": "CCCSP(=O)(OCC)Oc1ccc(Br)cc1Cl (stereo unspecified)",
    "growth AUC": "1.03 (inactive)"
  },
  {
    "MOLECULE": "COC(=O)C(C)N(C(=O)c1ccco1)c1c(C)cccc1C (stereo unspecified)",
    "growth AUC": "0.941 (inactive)"
  },
  {
    "MOLECULE": "CC1(C)CN=C(NN=C(/C=C/c2ccc(C(F)(F)F)cc2)/C=C/c2ccc(C(F)(F)F)cc2)NC1",
    "growth AUC": "0.972 (inactive)"
  },
  {
    "MOLECULE": "Cn1cc(-c2ccccc2)c(=O)c(-c2cccc(C(F)(F)F)c2)c1",
    "growth AUC": "0.994 (inactive)"
  },
  {
    "MOLECULE": "CCCN(CCC)N=O",
    "growth AUC": "1.01 (inactive)"
  },
  {
    "MOLECULE": "OC(Cn1cncn1)(c1ccc(F)cc1)c1ccccc1F (stereo unspecified)",
    "growth AUC": "1 (inactive)"
  },
  {
    "MOLECULE": "O=[N+]([O-])C(Br)(CO)CO",
    "growth AUC": "0.996 (inactive)"
  },
  {
    "MOLECULE": "COC[C@H](C)N(C(=O)CCl)c1c(C)csc1C",
    "growth AUC": "0.976 (inactive)"
  },
  {
    "MOLECULE": "CCOP(=S)(OCC)SCS(=O)CC (stereo unspecified)",
    "growth AUC": "0.972 (inactive)"
  },
  {
    "MOLECULE": "CO/N=C(/C1=NOCCO1)c1ccccc1Oc1ncnc(Oc2ccccc2Cl)c1F",
    "growth AUC": "0.948 (inactive)"
  },
  {
    "MOLECULE": "NC(=S)c1c(Cl)cccc1Cl",
    "growth AUC": "1.02 (inactive)"
  },
  {
    "MOLECULE": "CNC(=O)Oc1cccc2c1OC(C)(C)C2O (stereo unspecified)",
    "growth AUC": "1.03 (inactive)"
  },
  {
    "MOLECULE": "COP(=S)(OC)Oc1ccc([N+](=O)[O-])c(C)c1",
    "growth AUC": "0.988 (inactive)"
  },
  {
    "MOLECULE": "COCc1c(F)c(F)c(COC(=O)C2C(C=C(C)C)C2(C)C)c(F)c1F (stereo unspecified)",
    "growth AUC": "1.02 (inactive)"
  },
  {
    "MOLECULE": "C[n+]1ccc(-c2cc[n+](C)cc2)cc1.O.[Cl-].[Cl-]",
    "growth AUC": "0.947 (inactive)"
  },
  {
    "MOLECULE": "O=[N+]([O-])c1ccc(Oc2ccc(Cl)cc2Cl)cc1",
    "growth AUC": "0.97 (inactive)"
  },
  {
    "MOLECULE": "COC(=O)N(C(=O)N1CO[C@@]2(C(=O)OC)Cc3cc(Cl)ccc3C2=N1)c1ccc(OC(F)(F)F)cc1",
    "growth AUC": "0.916 (inactive)"
  },
  {
    "MOLECULE": "CC(C)C1(C)N=C(c2nc3ccccc3cc2C(=O)O)NC1=O (stereo unspecified)",
    "growth AUC": "0.958 (inactive)"
  },
  {
    "MOLECULE": "CSc1nc(N=[N+]=[N-])nc(NC(C)C)n1",
    "growth AUC": "1.02 (inactive)"
  },
  {
    "MOLECULE": "Fc1ccc(Oc2ccnc3cc(Cl)cc(Cl)c23)cc1",
    "growth AUC": "1.08 (inactive)"
  },
  {
    "MOLECULE": "CCOP(=O)(SC(C)CC)SC(C)CC (stereo unspecified)",
    "growth AUC": "0.982 (inactive)"
  },
  {
    "MOLECULE": "CC(Oc1ccc(Oc2ncc(C(F)(F)F)cc2Cl)cc1)C(=O)O (stereo unspecified)",
    "growth AUC": "1.01 (inactive)"
  },
  {
    "MOLECULE": "CC(C)C(C(=O)OC(C#N)c1cccc(Oc2ccccc2)c1)c1ccc(Cl)cc1 (stereo unspecified)",
    "growth AUC": "1.01 (inactive)"
  },
  {
    "MOLECULE": "Nc1nc(N)nc(Cl)n1",
    "growth AUC": "1.03 (inactive)"
  },
  {
    "MOLECULE": "CC1(C)C(C=C(Cl)Cl)C1C(=O)OCc1cccc(Oc2ccccc2)c1 (mixture of isomers)",
    "growth AUC": "1.01 (inactive)"
  },
  {
    "MOLECULE": "CCOP(=O)(NC(C)C)Oc1ccc(SC)c(C)c1 (stereo unspecified)",
    "growth AUC": "0.976 (inactive)"
  }
]
